Experimental Target: mu opioid receptor (MOR) (Homo sapiens, UniProt P35372)
Sequence (P35372 whole entry): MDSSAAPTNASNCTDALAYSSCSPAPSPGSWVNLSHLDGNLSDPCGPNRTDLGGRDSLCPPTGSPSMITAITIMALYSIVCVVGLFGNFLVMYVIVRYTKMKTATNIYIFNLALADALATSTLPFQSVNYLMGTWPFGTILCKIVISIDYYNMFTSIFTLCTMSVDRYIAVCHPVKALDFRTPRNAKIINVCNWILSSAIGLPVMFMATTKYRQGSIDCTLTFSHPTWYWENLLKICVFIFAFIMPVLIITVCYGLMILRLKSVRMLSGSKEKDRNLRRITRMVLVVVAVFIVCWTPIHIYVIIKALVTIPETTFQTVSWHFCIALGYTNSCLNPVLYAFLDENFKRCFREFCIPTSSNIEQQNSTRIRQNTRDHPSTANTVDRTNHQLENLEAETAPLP
Method Notes: Hit Hunter cAMP signaling assay (adenylyl cyclase inhibition), PAM mode with EC20 endomorphin-1
Format: cell-based
Assay Setup: cAMP EC50, adenylyl cyclase inhibition
Measured Attribute: EC50

>  <Compound>
Cc1ncc(Cl)c(C2CCCCN2c2nc(Cl)ncc2F)n1 (centres unmarked) [compound 392]

>  <EC50>
< 700 nM

$$$$

Noted for Cc1nc(C2CCCCN2c2nc(Cl)ncc2F)no1 (centres unmarked) [compound 409] : its EC50 reads < 700 nM

Noted for FC(F)(F)c1cccc(C2CCCCN2c2cc(Cl)ncn2)c1 (centres unmarked) [compound 360] : its EC50 reads < 700 nM

Noted for Fc1cnc(Cl)cc1N1CCCCC1c1cccc(C(F)(F)F)c1 (centres unmarked) [compound 261] : its EC50 reads > 2100 nM

Noted for Cc1nnc(C2CCCCN2c2nc(Cl)ncc2F)o1 (centres unmarked) [compound 363] : its EC50 reads < 700 nM

Noted for FC(F)(F)c1cccc(C2CCCCN2c2ccnc(Cl)n2)n1 (centres unmarked) [compound 469] : its EC50 reads > 2100 nM

---

Experimental Target: mu opioid receptor (MOR) (Homo sapiens, UniProt P35372)
Method Notes: Hit Hunter cAMP signaling assay (adenylyl cyclase inhibition), PAM mode with EC20 endomorphin-1
Type: cell-based
Assay Setup: cAMP EC50, adenylyl cyclase inhibition
Measured Attribute: EC50

>  <Compound>
Fc1cnc(Cl)nc1N1CCCCC1c1cncc(C(F)(F)F)n1 (stereo not shown) [compound 274]

>  <EC50>
0.7 to 2.1 µM

$$$$
>  <Compound>
Fc1cnc(Cl)nc1N1CCCCC1c1ccn2nncc2c1 (stereo not shown) [compound 374]

>  <EC50>
< 0.7 µM

$$$$
>  <Compound>
O=C1CCN(c2nc(Cl)ncc2F)C(c2cc(F)cc(C(F)(F)F)c2)C1 (stereo not shown) [compound 238]

>  <EC50>
> 2.1 µM

$$$$
>  <Compound>
Cc1ncc(F)c(N2CCCCC2c2cccc(C(F)(F)F)c2)n1 (stereo not shown) [compound 269]

>  <EC50>
> 2.1 µM

$$$$
>  <Compound>
Fc1ccc(C2CCCCN2c2nc(Cl)ncc2F)cc1Cl (single isomer, unassigned) [compound 10]

>  <EC50>
< 0.7 µM

$$$$
>  <Compound>
COc1ccc(C2CCCCN2c2ncncc2F)cc1Br (stereo not shown) [compound 233]

>  <EC50>
> 2.1 µM

$$$$

Noted for FC(F)(F)c1cccc(C2CCCCN2Cc2ccnc(Cl)c2)n1 (stereo not shown) [compound 166] : its EC50 reads > 2.1 µM

Noted for Fc1ccc(C2CCCCN2c2cccc(Cl)c2)cc1Cl (stereo not shown) [compound 443] : its EC50 reads > 2.1 µM

Noted for Fc1cnc(Cl)nc1N1CCCCC1c1ccccc1 (stereo not shown) [compound 362] : its EC50 reads < 0.7 µM

Noted for Fc1ccc(C2CCCCN2Cc2ccnc(Cl)c2)cc1Cl (stereo not shown) [compound 174] : its EC50 reads 0.7 to 2.1 µM

Noted for COc1ccc(C2CCCCN2c2cncc(Cl)n2)cc1Br (stereo not shown) [compound 229] : its EC50 reads > 2.1 µM

Noted for Fc1cc(Cl)cc(C2CCCCN2c2nc(Cl)ncc2F)c1 (single isomer, unassigned) [compound 404] : its EC50 reads < 0.7 µM

Noted for Fc1ccc(C2C(F)CCCN2c2nc(Cl)ncc2F)cc1Br (stereo not shown) [compound 211] : its EC50 reads > 2.1 µM

Noted for COC(=O)c1ccc(N2CCCCC2c2cccc(C(F)(F)F)n2)cc1 (stereo not shown) [compound 478] : its EC50 reads > 2.1 µM

Noted for COc1cc(C2CCCCN2c2nc(Cl)ncc2F)ccc1Br (stereo not shown) [compound 288] : its EC50 reads > 2.1 µM

Noted for Fc1cnc(Cl)nc1N1CCCCC1c1cc(Cl)cnc1F (stereo not shown) [compound 390] : its EC50 reads < 0.7 µM

Noted for Fc1ccc(CN2CCCCC2c2cccc(C(F)(F)F)n2)cc1Cl (stereo not shown) [compound 161] : its EC50 reads 0.7 to 2.1 µM

Noted for Fc1cnc(Cl)nc1N1CCCCC1c1cccc2ccncc12 (stereo not shown) [compound 286] : its EC50 reads > 2.1 µM

Noted for Fc1ccc(C2CCCCN2Cc2cc(Cl)ccc2F)cc1Cl (stereo not shown) [compound 160] : its EC50 reads 0.7 to 2.1 µM
